molecular target: T1, Recombinant MBP-mutCALR Type 1 fusion protein (human); assay: SPR, IgG captured, 1:1 fit, Exp. 2
T1 construct: custom made at Cepter; also called recombinant mutCALR protein
EXPERIMENTAL_ENDPOINT: Kd (nM)
One number for each entry, in nM.

- BINDER: "anti-mutCALR antibody clone 78 (antibody, human IgG1, lambda, N297A, V domains shown, human IgG1 N297A variant of clone 6) VH: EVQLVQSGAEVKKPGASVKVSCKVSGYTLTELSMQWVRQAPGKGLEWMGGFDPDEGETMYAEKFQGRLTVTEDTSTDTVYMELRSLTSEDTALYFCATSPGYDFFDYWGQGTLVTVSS VL: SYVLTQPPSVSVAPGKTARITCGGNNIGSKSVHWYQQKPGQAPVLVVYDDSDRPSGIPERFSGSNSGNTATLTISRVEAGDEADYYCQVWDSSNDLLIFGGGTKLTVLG"
  Kd (nM): 2.75

Field: next binder
Enquiry: I'd like to know its Kd. The binder in question is anti-mutCALR antibody clone 140 (antibody, human IgG1, lambda, N297A, V domains shown, human IgG1 N297A variant of clone 15) VH: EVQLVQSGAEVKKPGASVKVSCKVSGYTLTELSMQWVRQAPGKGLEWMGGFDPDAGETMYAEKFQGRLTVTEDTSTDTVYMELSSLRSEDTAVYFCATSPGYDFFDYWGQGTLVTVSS VL: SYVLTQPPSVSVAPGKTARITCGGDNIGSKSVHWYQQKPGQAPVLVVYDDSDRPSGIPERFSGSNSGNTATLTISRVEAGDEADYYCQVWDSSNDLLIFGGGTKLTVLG
Return: 7.09
